Molecular target: von Willebrand factor full length (Homo sapiens, UniProt P04275 SEQ:764-2813)
Test: filter; 20 nM protein
Settings: tags: Calbiochem 681300
# key: entry, value: binding signal

- binder: "AMX236.G4 (ssDNA) DNA: CTACCTACGATCTGACTAGCTTGGTAGCGACTTTGTGGAGATGCGGTTTGGTTGACGTCAGCTTACTCTCATGTAGTTCC"
  binding signal: "1.7 ratio to no protein"
- binder: "AMX236.C6 (ssDNA) DNA: CTACCTACGATCTGACTAGCGGAATGAGAGTGCTGGTGGATTGCTCAGGTCTGCTGGCTGCTTACTCTCATGTAGTTCC"
  binding signal: "1.06 ratio to no protein"
- binder: "AMX236.C12 (ssDNA) DNA: CTACCTACGATCTGACTAGCTTGGTAGCGACTCCGTGGAGCTGCGGTTTGGTCGACGTCAGCTTACTCTCATGTAGTTCC"
  binding signal: "1.99 ratio to no protein"
- binder: "AMX237.F12 (ssDNA) DNA: CTACCTACGATCTGACTAGCTTGGTAGCGATTTTGTGGAGCTGCGGTTTGGTCGACGTCAGCTTACTCTCATGTAGTTCC"
  binding signal: "1.95 ratio to no protein"
- binder: "AMX237.C1 (ssDNA) DNA: CTACCTACGATCTGACTAGCGGAATGAGGATGCTGGTGGATTGCTCAGGTCTGCTGGCTGCTTACTCTCATGTAGTTCC"
  binding signal: "0.76 ratio to no protein"
- binder: "AMX236.H1 (ssDNA) DNA: CTACCTACGATCTGACTAGCCTCAGATTGACTCCGGCCGACTTGTTTTAATCTTCTGAGTGCTTACTCTCATGTAGTTCC"
  binding signal: "1.1 ratio to no protein"
- binder: "AMX236.E2 (ssDNA) DNA: CTACCTACGATCTGACTAGCGGAATGAGTATGCTGATGGATTGCTCAGGTCTGCTGGCTGCTTACTCTCATGTAGTTCC"
  binding signal: "0.93 ratio to no protein"
- binder: "AMX236.G1 (ssDNA) DNA: CTACCTACGATCTGACTAGCCTCAGATTGACTCCGGCTGACTTGTTTTAATCTTCTGAGTGCTTACTCTCATGTAGTTCC"
  binding signal: "1.47 ratio to no protein"
- binder: "AMX237.A2 (ssDNA) DNA: CTACCTACGATCTGACTAGCTCCAGTGTTTCATCCAATAACCGTGCGGTGCCTCCGTGAGCTTACTCTCATGTAGTTCC"
  binding signal: "2.6 ratio to no protein"
- binder: "AMX236.H2 (ssDNA) DNA: CTACCTACGATCTGACTAGCGTGCAGTGCCTATCCCAGGCCGTGCGGTAGCCTCCGTCACGCTTACTCTCATGTAGTTCC"
  binding signal: "2.12 ratio to no protein"
- binder: "AMX237.H5 (ssDNA) DNA: CTACCTACGATCTGACTAGCTCCAGTGTTTCATTTAATAACCGTGCGGTGCCTCCGTGAGCTTACTCTCATGTAGTTCC"
  binding signal: "1.63 ratio to no protein"
- binder: "AMX238.D12 (ssDNA) DNA: CTACCTACGATCTGACTAGCTCCAGTGTTTCATTCAATAACCGTGCGGTGCCTCCGTGAGCTTACTCTCATGTAGTTCC"
  binding signal: "2.4 ratio to no protein"
- binder: "AMX238.H11 (ssDNA) DNA: CTACCTACGATCTGACTAGCTTTCAGTCTTTCACATTTATAGGGTTTGGCATTGGGTCTGGCTTACTCTCATGTAGTTCC"
  binding signal: "0.98 ratio to no protein"
- binder: "AMX237.B1 (ssDNA) DNA: CTACCTACGATCTGACTAGCTTGGTAGCGACACAGTGGAGCTGCGGTTTGGTCGACGTCAGCTTACTCTCATGTAGTTCC"
  binding signal: "2 ratio to no protein"
- binder: "AMX237.C4 (ssDNA) DNA: CTACCTACGATCTGACTAGCTTTCAGTCTTCCACATTTATAGGGTTTGGCATTGGGTCTGGCTTACTCTCATGTAGTTCC"
  binding signal: "0.97 ratio to no protein"
- binder: "AMX237.F9 (ssDNA) DNA: CTACCTACGATCTGACTAGCTTGGTAGCGATTCTGTGGAGCTGCGGTTTGGTCGACGTCAGCTTACTCTCATGTAGTTCC"
  binding signal: "2.21 ratio to no protein"
- binder: "AMX238.F3 (ssDNA) DNA: CTACCTACGATCTGACTAGCGTGCAGTGCCTATTTTAGGTCGTGCGGGGCCTCCGTCACGCTTACTCTCATGTAGTTCC"
  binding signal: "2.83 ratio to no protein"
- binder: "AMX237.F10 (ssDNA) DNA: CTACCTACGATCTGACTAGCGTGCAGTGCCCATTCCAGGCCGTGCGGTATCCTCCGTCACGCTTACTCTCATGTAGTTCC"
  binding signal: "2.9 ratio to no protein"
- binder: "AMX237.E5 (ssDNA) DNA: CTACCTACGATCTGACTAGCTTTCAGTCTTCTACATTTATAGGGTTTGGCATTGGGTCTGGCTTACTCTCATGTAGTTCC"
  binding signal: "0.97 ratio to no protein"
